SYSTEM NAME: T1, CD71 apical domain (human, UniProt P02786 189-383, limits assumed)
T1 construct: domain: apical domain
T1 sequence (P02786 189-383 limits assumed): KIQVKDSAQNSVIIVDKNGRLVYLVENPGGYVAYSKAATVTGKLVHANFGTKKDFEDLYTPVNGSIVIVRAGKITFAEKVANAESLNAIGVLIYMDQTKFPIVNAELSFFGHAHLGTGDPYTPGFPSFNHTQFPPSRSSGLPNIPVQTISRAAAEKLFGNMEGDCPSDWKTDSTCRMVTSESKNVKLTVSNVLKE
PROCEDURE SUMMARY: solution ELISA screen, signal ratio to HSA control
ENDPOINT LABEL: apical domain:HSA (ratio)

Solved entries (count: 3):
BINDER	ENDPOINT LABEL	REPORTED RESULT
SEQ ID NO 256 (designed binder, not shown: small tags and cut ends) MLPAPKNLVVSRVTEDSARLSWTAPDAAFDSFYIAYAEPRPDGEAIQLTVPGSERSYDLTGLKPGTEYSVLIHGVKGGLLSSPLHAYFTT	apical domain:HSA	76.7
SEQ ID NO 267 (designed binder, not shown: small tags and cut ends) MLPAPKNLVVSRVTEDSARLSWTAPDAAFDSFYIAYAEPRPDGEAIGLWVPGSERSYDLTGLKPGTEYSVLIHGVKGGLLSSPLVAYFTT	apical domain:HSA	186
SEQ ID NO 261 (designed binder, not shown: small tags and cut ends) MLPAPKNLVVSRVTEDSARLSWTAPDAAFDSFYIAYAEPRPDGEAILLQVPGSERSYDLTGLKPGTEYSVLIHGVKGGLLSSPLIAKFTT	apical domain:HSA	0.5

(1) SEQ ID NO 268 (designed binder, not shown: small tags and cut ends) MLPAPKNLVVSRVTEDSARLSWTAPDAAFDSFYIAYAEPRPDGEAIYLEVPGSERSYDLTGLKPGTEYSVLIHGVKGGLLSSPLFTT
(2) SEQ ID NO 207 (designed binder, not shown: small tags and cut ends) MLPAPKNLVVSRVTEDSARLSWTAPDAAFDSFYIAYAEPRPDGEAIHLSVPGSERSYDLTGLKPGTEYSVLIHGVKGGLLSSPLAAYFTT
Query: Of 1 and 2 , which carries the smaller reported apical domain:HSA figure? // output: label of the selected item
Result: 1

Reference source for all entries: patent US20220332795A1
